Where these numbers come from: ChEMBL document CHEMBL1781893

Exercise: state measured IC50 for each of the compounds provided.

[ask] // output IC50; input CC(C)C1=N[C@H]2CC[C@]34C[C@]35C(=O)C[C@]3(C)[C@@H]([C@H](C)N(C)C(=O)c6ccccc6)[C@H](O)C[C@@]3(C)[C@@H]5CC[C@H]4[C@]2(C)CS1 ; system Cholinesterase (Homo sapiens)
[reply] > 1 µM

[ask] // output IC50; input CC(=O)N(C)[C@@H](C)[C@H]1[C@H](O)C[C@@]2(C)[C@@H]3CC[C@H]4[C@]5(C)CSC(C(C)C)=N[C@H]5CC[C@@]45C[C@@]35C(=O)C[C@]12C ; system Cholinesterase (Homo sapiens)
[reply] > 10 µM

[ask] // output IC50; input CC(C)C1=N[C@H]2CC[C@]34C[C@]35C(=O)C[C@]3(C)[C@@H]([C@H](C)N(C)C)[C@H](O)C[C@@]3(C)[C@@H]5CC[C@H]4[C@]2(C)CS1 ; system Cholinesterase (Homo sapiens)
[reply] 5.37 µM

[ask] // output IC50; input C[C@@H]([C@H]1[C@H](O)C[C@@]2(C)[C@@H]3CC[C@H]4[C@]5(C)COC(C(F)(C(F)(F)F)C(F)(F)F)=N[C@H]5CC[C@@]45C[C@@]35C(=O)C[C@]12C)N(C)C ; system Cholinesterase (Homo sapiens)
[reply] > 10 µM

[ask] // output IC50; input CC(C)C1=N[C@H]2CC[C@]34C[C@]35C(=O)C[C@]3(C)[C@@H]([C@H](C)N(C)CCN6C(=O)c7ccccc7C6=O)[C@H](O)C[C@@]3(C)[C@@H]5CC[C@H]4[C@]2(C)CS1 ; system Cholinesterase (Homo sapiens)
[reply] 0.653 µM

[ask] // output IC50; input CC(C)C1=N[C@H]2CC[C@]34C[C@]35C(=O)C[C@]3(C)[C@@H]([C@H](C)N(C)Cc6ccccc6)[C@H](O)C[C@@]3(C)[C@@H]5CC[C@H]4[C@]2(C)CS1 ; system Cholinesterase (Homo sapiens)
[reply] 0.554 µM

[ask] // output IC50; input C[C@@H]([C@H]1[C@H](O)C[C@@]2(C)[C@@H]3CC[C@H]4[C@]5(C)COC(C(F)(F)F)=N[C@H]5CC[C@@]45C[C@@]35C(=O)C[C@]12C)N(C)C ; system Cholinesterase (Homo sapiens)
[reply] > 10 µM

[ask] // output IC50; input CC(C)C1=N[C@H]2CC[C@]34C[C@]35C(=O)C[C@]3(C)[C@@H]([C@H](C)N(C)C)[C@H](O)C[C@@]3(C)[C@@H]5CC[C@H]4[C@]2(C)CC1 ; system Cholinesterase (Homo sapiens)
[reply] > 10 µM

[ask] // output IC50; input CC(C)C1=N[C@H]2CC[C@]34C[C@]35C(=O)C[C@]3(C)[C@@H]([C@H](C)N(C)CCc6ccccc6)[C@H](O)C[C@@]3(C)[C@@H]5CC[C@H]4[C@]2(C)CS1 ; system Cholinesterase (Homo sapiens)
[reply] 0.501 µM

[ask] // output IC50; input CCN1C[C@]2(C)[C@H](CC=C3C[C@H]4C(=O)C[C@]5(C)[C@@H]([C@H](C)N(C)C)[C@H](O)C[C@@]5(C)[C@@H]4CC[C@H]32)N=C1C(C)C ; system Cholinesterase (Homo sapiens)
[reply] 3.33 µM

[ask] // output IC50; input CN[C@@H](C)[C@H]1[C@H](O)C[C@@]2(C)[C@@H]3CC[C@H]4[C@]5(C)CSC(C(C)C)=N[C@H]5CC[C@@]45C[C@@]35C(=O)C[C@]12C ; system Cholinesterase (Homo sapiens)
[reply] 1.34 µM
